PROTOCOL_NOTES: soluble on expression in E. coli; label from the status in PepcDB or PDB records
MEASURED_ATTRIBUTE: soluble on expression in E. coli

>>> reported_result("MGSDKIHHHHHHMENTSYIALSRQTALWRQLDVVSNNLANMNTNGYQAEQTLFSEYLMNTRDSHFRLPEKLAYTQDAGTYRDLTAGPLEHTGNPLDLAINGEGYFEVEDGAGPAYTRGGRFTLDAEGKVVTADGRPLMTDAGTPLVIAPNEGEVTISATGTVSTENGPVGKLRLVSFEDEQKLRRIGGGLFDSGDQQANPITEPRIEQGMIEKSNVNPVVEMTRMIQVQRSYEAANKLIESENDRQLNAYAVLSGTK")
"not soluble"
>>> reported_result("MGSDKIHHHHHHMVLGGPMSLNRYFTGGLLCLLGCNPANAQTATIVLSATLLPACEAGSVGSGGAITFGTLDFGQYASLNNAISATSQQGAGSIRVRCVSGQTYAITLDGGLYGSVATRRMANIANTALTLTYNLYSDRPGGIVWDNTTGVAATGNGNDQWYPIYGLVPAQTTPVAGTYRDTVNVTISW")
"not soluble"
